Give TGI for every item shown.
System: SNB-78 CNS
method.notes: NCI tumour cell line growth inhibition, 48 h

Dear colleague, could you send me TGI for each of the items below? Thanks.
1. CCOc1ccccc1NC(=O)C1=C(C)NC(C)=C(C(=O)Nc2ccccc2OCC)C1c1ccc2c(c1)OCO2
2. O=C(Nc1c(Cl)cc([N+](=O)[O-])cc1Cl)C(=O)C(C(=O)c1ccncc1)C1OC(=O)c2ccccc21 (stereo not drawn)
3. Cc1cc(C)c(C2=NO[C@@H]3[C@H]2C(=O)C=C2N(Cc4ccccc4)CCO[C@@]23O)c(C)c1
4. COc1ccc(C2C(C(=O)O)=C(COC(C)=O)Oc3cc4c(cc32)OCO4)c(OC)c1 (stereo not drawn)
5. C=C(/C=C/C=C(\CO)CCC=C(C)C)[C@H]1CCC2([C@H](CCCO)/C(=C(/C)C=O)CC[C@]2(C)O)[C@H]1O (stereo partly drawn)

[A]
["95.6 µM", "> 100 µM", "> 100 µM", "> 100 µM", "> 100 µM"]
